In this section, each of the compounds is paired with its reported inhibition.
# Test Target: UniProt:Q8ILP4
# Procedure Summary: Screening of natural compounds for PfPanK inhibitors and IC50 determination (recombinant enzyme, ADP Hunter Plus)
# Assay type: biochemical
# Cond: 2 h, primary screening; 37°C
I only need the number, in %, no unit after it.

Some compounds with recorded inhibition:
{"columns": ["Compound", "inhibition / %"],
 "data": [
  ["CS[C@H]1SC[C@H]2C(=O)N(C)[C@@H](C(C)C)C(=O)OC[C@@H](NC(=O)c3cnc4ccccc4n3)C(=O)N[C@@H](C)C(=O)N(C)[C@@H]1C(=O)N(C)[C@@H](C(C)C)C(=O)OC[C@@H](NC(=O)c1cnc3ccccc3n1)C(=O)N[C@@H](C)C(=O)N2C", 47.1],
  ["CN[C@@H]1[C@H](O[C@H]2[C@H](O[C@H]3[C@H](O)[C@@H](O)[C@H](NC(=N)N)[C@@H](O)[C@@H]3NC(=N)N)O[C@@H](C)[C@]2(O)CO)O[C@@H](CO)[C@H](O)[C@H]1O [Dihydrostreptomycin]", 44.7],
  ["COc1c2c(c(O)c3c(=O)c4c(oc13)[C@@H](O)CC[C@@H]4O)-c1c3c(c4cc(C)n(C)c(=O)c4c1O)OCO[C@H]3C2", 76.9],
  ["CON1C(=O)[C@H]2NC(=O)[C@]13Oc1cc(O)c(Cl)cc1[C@@H]3SS2", 49.7],
  ["NC[C@@H]1O[C@H](O[C@H]2[C@@H](O)[C@H](O[C@@H]3[C@@H](O)[C@H](N)C[C@H](N)[C@H]3O[C@H]3O[C@H](CO)[C@@H](O)C[C@H]3N)O[C@@H]2CO)[C@H](N)[C@@H](O)[C@@H]1O[C@H]1O[C@H](CO)[C@@H](O)[C@H](O)[C@@H]1O", 44],
  ["Cc1nnc(SCC2=C(C(=O)O)N3C(=O)[C@@H](NC(=O)Cn4cnnn4)[C@H]3SC2)s1", 44.2],
  ["CO[C@@H]1[C@@H](O[C@@H]2O[C@H](C)[C@@H](O[C@H]3C[C@@](C)(O)[C@@H](OC(=O)CC(C)C)[C@H](C)O3)[C@H](N(C)C)[C@H]2O)[C@@H](CC=O)C[C@@H](C)[C@@H](O)/C=C/C=C/C[C@@H](C)OC(=O)C[C@H]1OC(C)=O", 40.1],
  ["NC[C@H]1O[C@H](O[C@H]2[C@H](O[C@@H]3O[C@H](CO)[C@@H](O)[C@H]3O)[C@@H](O)[C@H](N)C[C@@H]2N)[C@H](N)[C@@H](O)[C@@H]1O", 46.6],
  ["CCC[C@@H]1C[C@@H](C(=O)N[C@@H]([C@H]2O[C@H](SC)[C@H](O)[C@@H](O)[C@H]2O)[C@@H](C)O)N(C)C1", 41.3]
]}

**Query** Reported inhibition, compound CN[C@@H]1[C@H](O)[C@H](NC)[C@H]2O[C@@]3(O)C(=O)C[C@@H](C)O[C@H]3O[C@@H]2[C@H]1O : ____
**Result** 47.8

====

# Test Target: PfPanK1 (Plasmodium falciparum, UniProt Q8ILP4)
# Sequence (Q8ILP4 1-519): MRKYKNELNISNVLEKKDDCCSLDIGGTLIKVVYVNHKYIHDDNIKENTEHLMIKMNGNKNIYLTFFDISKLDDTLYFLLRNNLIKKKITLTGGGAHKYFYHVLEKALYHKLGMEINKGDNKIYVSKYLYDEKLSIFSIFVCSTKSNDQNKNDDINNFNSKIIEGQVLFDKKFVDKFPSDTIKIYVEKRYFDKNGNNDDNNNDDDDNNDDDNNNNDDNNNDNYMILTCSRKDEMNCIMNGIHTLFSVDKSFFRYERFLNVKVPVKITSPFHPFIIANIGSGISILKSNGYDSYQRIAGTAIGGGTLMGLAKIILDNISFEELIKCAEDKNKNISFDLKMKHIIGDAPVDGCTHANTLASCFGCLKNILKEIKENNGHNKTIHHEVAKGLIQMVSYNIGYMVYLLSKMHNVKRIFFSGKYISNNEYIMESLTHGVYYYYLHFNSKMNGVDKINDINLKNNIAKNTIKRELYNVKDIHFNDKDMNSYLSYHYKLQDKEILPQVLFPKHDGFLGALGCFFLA
# Assay type: biochemical
# Cond: metal ion 5 mM; substrate pantetheine; relative to MgCl2; pH 8.4, 37°C
Recorded Metric: Relative activity (%) Pantetheine
I only need the number, in %, no unit after it.

Some compounds with recorded Relative activity (%) Pantetheine:
{"columns": ["Compound", "Observed Result"],
 "data": [
  ["[Cl-].[Cl-].[Zn+2] [ZnCl2]", 29.0],
  ["[Cl][Fe][Cl] [FeCl2]", 58.3],
  ["[Cl-].[K+] [KCl]", 33.6],
  ["[Ca+2].[Cl-].[Cl-] [CaCl2]", 30.5],
  ["[Cl][Cu][Cl] [CuCl2]", 8.5]
]}

**Query** Reported Relative activity (%) Pantetheine, compound [Cl-].[Cl-].[Mg+2] [MgCl2] : ____
**Result** 100

**Query** Then [Cl-].[Li+] [LiCl2] ?
**Result** 32.6

**Query** Then [Cl][Mn][Cl] [MnCl2] ?
**Result** 55.3

**Query** Then [Cl][Ni][Cl] [NiCl2] ?
**Result** 41.4

Reference source for all entries: paper PMC7985445
